src = ChEMBL document CHEMBL1131289

Target: Substance-P receptor (Homo sapiens, UniProt P25103)
Sequence (P25103 whole entry): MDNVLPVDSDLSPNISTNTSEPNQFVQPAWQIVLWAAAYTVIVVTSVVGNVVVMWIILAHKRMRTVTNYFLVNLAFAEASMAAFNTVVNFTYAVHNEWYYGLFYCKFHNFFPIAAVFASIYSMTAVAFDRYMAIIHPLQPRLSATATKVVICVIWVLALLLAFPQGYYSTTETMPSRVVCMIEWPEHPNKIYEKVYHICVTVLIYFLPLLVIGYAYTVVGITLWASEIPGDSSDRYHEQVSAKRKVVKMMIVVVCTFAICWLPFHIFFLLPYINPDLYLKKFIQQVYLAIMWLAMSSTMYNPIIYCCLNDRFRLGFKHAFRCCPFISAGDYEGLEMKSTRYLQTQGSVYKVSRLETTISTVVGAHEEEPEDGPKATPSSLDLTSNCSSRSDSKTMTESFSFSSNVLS
Experiment: In vitro binding affinity towards Tachykinin receptor 1 by measuring its ability to displace [3H]SP (0.6 nM) binding to membranes from Cos-7 cells transiently transfected with the hNK-1R
pIC50: −log10 of the molar value.
Given measured pIC50, output satisfied if it is greater than or equal to 6 and not satisfied if not.

{"STRUCTURE_AS_SMILES": "Cc1ccccc1C/N=C(\\S)N1CCC[C@H]1C(=O)N[C@@H](Cc1ccccc1)C(=O)N(C)Cc1ccccc1", "ASSAYED_TARGET": "Substance-P receptor (Homo sapiens, UniProt P25103)", "ASSIGNED_CLASS": "satisfied"}
{"STRUCTURE_AS_SMILES": "CN(Cc1ccncc1)C(=O)[C@H](Cc1ccccc1)NC(=O)[C@@H]1CCCN1C(=S)NCc1ccccc1Cl", "ASSAYED_TARGET": "Substance-P receptor (Homo sapiens, UniProt P25103)", "ASSIGNED_CLASS": "not satisfied"}
{"STRUCTURE_AS_SMILES": "CN(C(=O)[C@H](Cc1ccccc1)NC(=O)[C@@H]1CCCN1C(=S)NCc1ccccc1Cl)c1ccccc1", "ASSAYED_TARGET": "Substance-P receptor (Homo sapiens, UniProt P25103)", "ASSIGNED_CLASS": "not satisfied"}
{"STRUCTURE_AS_SMILES": "CN(CCc1ccccc1)C(=O)[C@H](Cc1ccccc1)NC(=O)[C@@H]1CCCN1C(=S)NCc1ccccc1Cl", "ASSAYED_TARGET": "Substance-P receptor (Homo sapiens, UniProt P25103)", "ASSIGNED_CLASS": "not satisfied"}
{"STRUCTURE_AS_SMILES": "CN(Cc1ccccc1)C(=O)[C@H](Cc1ccccc1)NC(=O)[C@@H]1CCCN1C(=S)NCc1ccccc1F", "ASSAYED_TARGET": "Substance-P receptor (Homo sapiens, UniProt P25103)", "ASSIGNED_CLASS": "satisfied"}
{"STRUCTURE_AS_SMILES": "CN(Cc1ccccc1)C(=O)[C@H](Cc1ccccc1)NC(=O)[C@@H]1CCCN1C(=O)NCc1ccccc1Cl", "ASSAYED_TARGET": "Substance-P receptor (Homo sapiens, UniProt P25103)", "ASSIGNED_CLASS": "satisfied"}
{"STRUCTURE_AS_SMILES": "CN(Cc1ccccc1)C(=O)[C@H](CCc1ccccc1)NC(=O)[C@@H]1CCCN1/C(S)=N/Cc1ccccc1Cl", "ASSAYED_TARGET": "Substance-P receptor (Homo sapiens, UniProt P25103)", "ASSIGNED_CLASS": "satisfied"}
{"STRUCTURE_AS_SMILES": "CN(Cc1ccccc1)C(=O)[C@@H](Cc1ccccc1)NC(=O)[C@H]1CCCN1C(=S)Nc1ccccc1Cl", "ASSAYED_TARGET": "Substance-P receptor (Homo sapiens, UniProt P25103)", "ASSIGNED_CLASS": "not satisfied"}
{"STRUCTURE_AS_SMILES": "O=C(NCCc1c[nH]c2ccccc12)[C@H](Cc1ccccc1)NC(=O)[C@@H]1CCCN1C(=S)NCc1ccccc1Cl", "ASSAYED_TARGET": "Substance-P receptor (Homo sapiens, UniProt P25103)", "ASSIGNED_CLASS": "not satisfied"}
